Could you please report measured ELISA score for the items listed next?
Target: T1, human neonatal Fc receptor (hFcRn) (human, UniProt P55899 24-290; P61769 21-119)
T1 construct: Biotinylated in the ELISA, Octet and yeast assays; also called human FcRn; huFcRn
T1 sequence (P55899 24-290 limits assumed, chain 1 of 2): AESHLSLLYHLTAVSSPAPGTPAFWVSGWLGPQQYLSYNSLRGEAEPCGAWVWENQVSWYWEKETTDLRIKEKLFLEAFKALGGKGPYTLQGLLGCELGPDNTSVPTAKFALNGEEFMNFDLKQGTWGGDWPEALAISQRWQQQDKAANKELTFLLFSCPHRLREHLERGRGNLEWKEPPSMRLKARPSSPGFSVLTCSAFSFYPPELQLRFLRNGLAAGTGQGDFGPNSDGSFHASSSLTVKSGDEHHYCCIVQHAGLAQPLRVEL
T1 sequence (P61769 21-119 limits assumed, chain 2 of 2): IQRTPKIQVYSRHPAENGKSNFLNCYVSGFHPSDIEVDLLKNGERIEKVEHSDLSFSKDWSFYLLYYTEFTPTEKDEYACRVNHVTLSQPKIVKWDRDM
Assay: phage ELISA pH 6;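 note: higher score means stronger binding and above about 3 to 5 exceeds background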
One number for each entry.

Answered examples (2):
L5 isolate with insertion SEQ ID NO: 485 (other) EPKSCDKTHTCPPCPAPELLGGPSVFLFPPKPKDTLMISRTPEVTCVVVDVSHEDPEVKFNWYVDGVEVHNAKTKPREEQYNSTYRVVSVLTVLHQDWLNGKEYKCKVSNKALPAPIEKTISKAKGQPREPQVYTLPPSRDELTKNQVSLTCLVKGFYPSDIAVEWESNGGCMPPQWMCGGGQPENNYKTTPPVLDSDGSFFLYSKLTVDKSRWQQGNVFSCSVMHEALHNHYTQKSLSLSPGK :: 27.5
L5 isolate with insertion SEQ ID NO: 488 (other) EPKSCDKTHTCPPCPAPELLGGPSVFLFPPKPKDTLMISRTPEVTCVVVDVSHEDPEVKFNWYVDGVEVHNAKTKPREEQYNSTYRVVSVLTVLHQDWLNGKEYKCKVSNKALPAPIEKTISKAKGQPREPQVYTLPPSRDELTKNQVSLTCLVKGFYPSDIAVEWESNGGCGPYKTECGGGQPENNYKTTPPVLDSDGSFFLYSKLTVDKSRWQQGNVFSCSVMHEALHNHYTQKSLSLSPGK :: 26.1

INPUT: Report ELISA score for L5 isolate with insertion SEQ ID NO: 444 (other) EPKSCDKTHTCPPCPAPELLGGPSVFLFPPKPKDTLMISRTPEVTCVVVDVSHEDPEVKFNWYVDGVEVHNAKTKPREEQYNSTYRVVSVLTVLHQDWLNGKEYKCKVSNKALPAPIEKTISKAKGQPREPQVYTLPPSRDELTKNQVSLTCLVKGFYPSDIAVEWESNGGCHAPQWECGGGQPENNYKTTPPVLDSDGSFFLYSKLTVDKSRWQQGNVFSCSVMHEALHNHYTQKSLSLSPGK please.
OUTPUT: 53.2
